- assayed.system: T1, TNFR1 (Homo sapiens, UniProt P19438)
- T1 chain: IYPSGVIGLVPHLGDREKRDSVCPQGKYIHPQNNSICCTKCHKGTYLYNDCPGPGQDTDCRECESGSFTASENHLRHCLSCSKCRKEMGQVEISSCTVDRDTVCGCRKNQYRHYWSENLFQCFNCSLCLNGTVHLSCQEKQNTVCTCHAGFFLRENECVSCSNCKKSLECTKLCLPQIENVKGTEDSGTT
- test.summary: yeast display SC50
Class field: derived from apparent Kd (screen); ranges low = under 0.7 nM, mid = from 0.7 nM up to 5 nM, high = 5 nM and over

Check out these entries, answers already filled in.
>>> group_label("K16S (designed binder) SMEEEVEKAAKEYEKSKKEAIEKHLEKLKAKDKEAAERFLKELEEAAKEYAKDEAKTMSEEEAKRRAKKYKEKVLLSELSEEEQKEIKEAEEKLVRTILKYVEEAAK")
"mid"
>>> group_label("L76A (designed binder) SMEEEVEKAAKEYEKKKKEAIEKHLEKLKAKDKEAAERFLKELEEAAKEYAKDEAKTMSEEEAKRRAKKYKEKVLASELSEEEQKEIKEAEEKLVRTILKYVEEAAK")
"mid"
>>> group_label("H24R (designed binder) SMEEEVEKAAKEYEKKKKEAIEKRLEKLKAKDKEAAERFLKELEEAAKEYAKDEAKTMSEEEAKRRAKKYKEKVLLSELSEEEQKEIKEAEEKLVRTILKYVEEAAK")
"mid"
>>> group_label("E92Q (designed binder) SMEEEVEKAAKEYEKKKKEAIEKHLEKLKAKDKEAAERFLKELEEAAKEYAKDEAKTMSEEEAKRRAKKYKEKVLLSELSEEEQKEIKEAEQKLVRTILKYVEEAAK")
"high"

Please classify: K71R (designed binder) SMEEEVEKAAKEYEKKKKEAIEKHLEKLKAKDKEAAERFLKELEEAAKEYAKDEAKTMSEEEAKRRAKKYREKVLLSELSEEEQKEIKEAEEKLVRTILKYVEEAAK
low

Entry L25N (designed binder) SMEEEVEKAAKEYEKKKKEAIEKHNEKLKAKDKEAAERFLKELEEAAKEYAKDEAKTMSEEEAKRRAKKYKEKVLLSELSEEEQKEIKEAEEKLVRTILKYVEEAAK please
low

Entry E103L (designed binder) SMEEEVEKAAKEYEKKKKEAIEKHLEKLKAKDKEAAERFLKELEEAAKEYAKDEAKTMSEEEAKRRAKKYKEKVLLSELSEEEQKEIKEAEEKLVRTILKYVLEAAK please
mid
